system: SR; assay: NCI tumour cell line growth inhibition, 48 h
Calls of active or inactive are those of the source. Rule as the data show it: active = GI50 up to about 1.1 µM and inactive = higher.
Assay Readout: GI50

The examples below pair each entry with its known result.
CC(C)=CC(O)C/C(C)=C/CC/C(C)=C/CCC1(C)C(CCCO)/C(=C(/C)C=O)CCC1(C)O (stereo not given) : 37 µM (inactive)
COc1ccc(/C=C/[N+](=O)[O-])cc1 : 2.03 µM (inactive)
O=C1C(Cl)N(c2ccccc2Cl)C1c1c[nH]c2ccccc12 (stereo not given) : > 100 µM (inactive)
COc1ccc(N2C(=O)c3cccnc3S2(=O)=O)cc1 : > 100 µM (inactive)
CC(C)OC(=O)C1(C(C)C)CCc2ccc(C(=O)CCC(=O)O)cc21 (stereo not given) : > 100 µM (inactive)

Quick one: give measured GI50 for Cn1c(-c2c(C3=CC(=O)N(c4ccccc4)C3=O)c3ccccc3n2C)cc2ccccc21
17.7 µM (inactive)

Answer with reported GI50 of CCCCC(=O)OC[n+]1cccc(-c2c(COC(=O)NC(C)C)c(COC(=O)NC(C)C)c3n2CCC3)c1
4.72 µM (inactive)

Report measured GI50; entry is COc1cc(/C=C/C(=O)CC(=O)/C=C/c2cc(OC)c(O)c(OC)c2)cc(OC)c1O
5.53 µM (inactive)

Find the measured GI50 of N=C1CCCC1C(=S)SCCC(N)=O (stereo not given) and report it.
19.3 µM (inactive)

Give GI50 for Cc1c(C)c2c(c(N)c1C#N)C(=O)N(N)C2=O
26.3 µM (inactive)

----------
system: SK-MEL-28; assay: NCI tumour cell line growth inhibition, 48 h
Active and inactive are the calls of the source. Cut-off read from the data, not from the text of the source: active = GI50 up to about 1.1 µM and inactive = higher.
Assay Readout: GI50

Before answering, review these 4 worked examples.
N=C(N)SCc1cccc(-c2nc3ccccc3c(=O)o2)c1 : > 100 µM (inactive)
CCOC(=O)/C(=C\Nc1c(C)n(C)n(-c2ccccc2)c1=O)C(=O)c1ccccc1 : > 100 µM (inactive)
COC(=O)[C@@]12CN(C)[C@@H](C(C)(C)C)N1C(=O)OC2c1ccccc1 (stereo partly specified) : > 100 µM (inactive)
C=C(CN(C)C)C(=O)c1ccc(OC2OC(COC(C)=O)C(OC(C)=O)C(OC(C)=O)C2OC(C)=O)cc1 (stereo unspecified) : 2.52 µM (inactive)

Complete the entry with GI50 for O=c1c2ccccc2c2c3c1cccc3c1cccc3c(=O)c4ccccc4c2c31
> 100 µM (inactive)

Return reported GI50. Input compound: CC1(c2ccc(Cl)cc2)CC(c2ccc(Cl)cc2)=C(C#N)C(=C(C#N)C#N)N1 (stereo unspecified)
32.7 µM (inactive)

----------
system: NCI-H23; assay: NCI tumour cell line growth inhibition, 48 h
The source made the active and inactive calls. Cut-off read from the data, not from the text of the source: active = GI50 up to about 1.1 µM and inactive = higher.
The reply should be one of these categories: 1.0 for active, 0.0 for inactive

C=CCC1C(=O)C(C(=O)OC)N2CCc3c([nH]c4ccccc34)C12 (stereo not drawn) : 0.0
O=C(Cn1c2c(c3ccccc31)CCCC2)N1CCCC1 : 0.0
O=C(CSC(=S)N1CCCCC1)Nc1nc2c(s1)CCCC2 : 0.0
CC(C)CCc1n[nH]c(=O)n1/N=C\c1ccccc1 : 0.0
O=C1NC2(CCCCC2)C2CCCCC=C12 (stereo not drawn) : 0.0
COc1ccc(-n2nnnc2C2(Nc3ccccc3)CCN(Cc3ccccc3)CC2)cc1 : 0.0

Please indicate how the test categorized COc1cc(S(=O)(=O)Nc2ccc(-c3csc(/N=C\c4cccs4)n3)cc2)ccc1Cl .
0.0

Fill in: this test's call for CN(Cc1cc(Cl)cc(Cl)c1)CC(C(=O)c1ccccc1)c1ccccc1 (stereo not drawn) is ___
0.0

Record lookup: outcome of this test for O=C(C(=O)c1cc(-c2ccccc2)nc2ccc3ccccc3c12)c1ccccc1 ?
0.0

For COc1ccc(OC)c(N(CN2C(=O)CCC2C(=O)O)C(C)=O)c1 (stereo not drawn) , what call appears in the results of this test?
0.0

For Cc1nc(NC(C)(CO)CO)nc(N/N=C/c2ccc(Cl)cc2)c1C(=O)Nc1ccc(Cl)cc1 , which call appears in the assay record?
0.0

Kindly provide the recorded test outcome for the following compound: Nc1ccc(S(=O)(=O)Nc2ccc(Nc3c4ccccc4nc4ccccc34)cc2)cc1
1.0

Per the assay record, what outcome was assigned to O=c1c(Cl)c(Cl)c(=O)c2sc3cc(Cl)ccc3[nH]c1=2 ?
0.0

The reported numbers originate from ChEMBL document CHEMBL1201862.
